surviving fraction ratio K562 SF3B1 K700E / K562 SF3B1 WT: recorded values
Test system: K562 SF3B1 K700E vs K562 SF3B1 WT
ASSAY EXPLANATION: surviving fraction ratio K562 SF3B1 K700E / K562 SF3B1 WT (each relative to DMSO); higher = less selective killing of SF3B1 K700E cells
CONDITION DESCRIPTION: 1000nM; 5 days
Answer with a bare number; do not write a unit.

# annotated cases, reported surviving fraction ratio K562 SF3B1 K700E / K562 SF3B1 WT shown
compound=COc1cc2nccc(Oc3ccc(NC(=O)NC4CC4)c(Cl)c3)c2cc1C(N)=O target="K562 SF3B1 K700E vs K562 SF3B1 WT" observed_measurement=0.674
compound=Cc1nc(Nc2ncc(C(=O)Nc3c(C)cccc3Cl)s2)cc(N2CCN(CCO)CC2)n1 target="K562 SF3B1 K700E vs K562 SF3B1 WT" observed_measurement=1.65
compound=Cn1c(=O)n(-c2ccc(C(C)(C)C#N)cc2)c2c3cc(-c4cnc5ccccc5c4)ccc3ncc21 target="K562 SF3B1 K700E vs K562 SF3B1 WT" observed_measurement=1.45
compound=CN1CCN(c2nc(C3=C(c4c[nH]c5ccccc45)C(=O)NC3=O)c3ccccc3n2)CC1 target="K562 SF3B1 K700E vs K562 SF3B1 WT" observed_measurement=0.896
compound=O=C(c1cc(Cc2n[nH]c(=O)c3ccccc23)ccc1F)N1CCN(C(=O)C2CC2)CC1 target="K562 SF3B1 K700E vs K562 SF3B1 WT" observed_measurement=0.871
compound=NC1(c2ccc(-c3nc4ccn5c(=O)[nH]nc5c4cc3-c3ccccc3)cc2)CCC1 target="K562 SF3B1 K700E vs K562 SF3B1 WT" observed_measurement=0.626

# context switch: different compound, same surviving fraction ratio K562 SF3B1 K700E / K562 SF3B1 WT
Documented surviving fraction ratio K562 SF3B1 K700E / K562 SF3B1 WT of COc1cc([C@@H]2c3cc4c(cc3[C@@H](O[C@@H]3O[C@@H]5CO[C@@H](C)O[C@H]5[C@H](O)[C@H]3O)[C@H]3COC(=O)[C@H]23)OCO4)cc(OC)c1O [etoposide] : 1.51
